# MEASURED_ON: T1, recombinant purified FRα (ECL assay calibrator) (human, UniProt P15328 25-234)
# T1 construct: Calibrator of the ECL sandwich assays; also called FRα calibrator; FRα standard
# TEST_PROTOCOL: ECL sandwich, FRα calibrator; capture 19D4.B7; binder = detection Ab
MEASUREMENT_NAME: Specific signal at 500 pg/mL

binder="Monoclonal antibody 26A9.C4 (antibody, mouse IgG1, V domains shown, Murine IgG1 kappa from hybridoma; also called ATCC PTA-123092) VH: SGARELVKPGASVKLSCKTSGFTFSSSFISWLKQKPGQSLEWIAWIYGGNGGTSYNQNFTGKAQLTVDTSSSTAYMQFSSLTTEDSAVYYCASETYGNYWYFDVWGAGTTVTVSS VL: QSPASLSASVGDTVTITCRASGNIHNYLAWYQQKQGKSPQLLVYNAKTLADGVPSRFSGSGSGTQYSLKINSLQPEDFGNYYCQHFWSTPYTFGGGTKLEIK" measured_result=16500
binder="Monoclonal antibody 1C6.E12.G8 (antibody, mouse IgG1, V domains shown, Murine IgG1 kappa from hybridoma; also called ATCC PTA-123091) VH: SGARELVKPGASVKLSCKTSGFTFNSSYITWLKQKPGQSLEWIAWIYAGNGGTTYNQKFTGKAQLTVDTSSSTAYMQFSSLTTEDSAIYYCASETYTNYWYFDVWGSGTTVTVSS VL: QSPASLSASVGETVTITCRASGNIHNYLAWYQQKQGKSPQLLVYNAKTLADGVPSRFSGSGSGTQYSLKINSLQPEDFGSYYCQHFWSTPYTFGGGTKLEIK" measured_result=37500
binder="Monoclonal antibody 24H8.D3 (antibody, mouse IgG1, V domains shown, Biotin-conjugated when used as capture antibody in the ECL assay; also called ATCC PTA-123090) VH: QVQLKESGPGLVAPSQSLSITCTVSGFSLTSYGVSWVRQPPGKGLEWLGVIWGDGSTNYHSTLISRLSISKDNSKSQVFLKLNSLQTDDTATYYCAKPHPAATGAMDYWGQGTSVTVSS VL: DIQMTQTTSSLSASLGDRVTISCRASQDISNHLNWYQQKPDGTIKLLIYYTSKLHSGVPSRFSGSGSGTDYSLTISNLEQEDIATYFCQQGNTLWTFGGGTKLEIK" measured_result=40500
